These entries and their values trace back to PubChem BioAssay (NCI).

tested on: SF-268 CNS; test: NCI-60 one-dose screen, 48 h (100 = growth as untreated, 0 = no growth, -100 = all killed); conditions: 10 µM unless noted
This is part of a sample that, as a whole, favours compounds with a hit. Of some 83,000 tested, about 20% had one in any assay.
Decision: growth >= 20% yields true, all other cases yield false.

Worked cases, answers included:
INSERT INTO assay_data (compound, class_name) VALUES
  ('CC(C)(C)OC(=O)/C=C/c1cccc2c1C(=O)NC(C)(c1cc3cc(Cl)ccc3oc1=O)N2 (configuration not stated)', 'true'),
  ('COc1cc(-c2ccc(/C=N/NC(=O)c3[nH]c4ccc(Br)cc4c3-c3ccccc3)s2)cc(OC)c1OC', 'true'),
  ('Cc1cccc(-c2nc(Nc3ccc(C)c(S(N)(=O)=O)c3)c3ccccc3n2)c1', 'true'),
  ('COc1ccc(C(=O)/C=C/c2ccccc2Cl)cc1S(N)(=O)=O', 'true'),
  ('Cc1sc(C(NC(=O)OCCn2c([N+](=O)[O-])cnc2C)C(F)(F)Cl)nc1-c1ccc(OC(F)(F)F)cc1 (configuration not stated)', 'false'),
  ('O=C(/C=C/Nc1ccc2oc(=O)ccc2c1)c1cc2cc(Br)ccc2oc1=O', 'true');

Query: Assess whether reported growth for CN(C)CCn1c2ccccc2c2nc3ccc([N+](=O)[O-])cc3nc21 sits at 20% or higher.
Response: true

Query: Is the recorded value of growth equal to or greater than 20% for this compound? Cc1ccc(S(=O)(=O)c2nc(S(=O)(=O)c3ccc(C)cc3)c(N3CCC(O)CC3)s2)cc1
Response: true

Query: Given COc1cc2oc(-c3cccc(NC(=O)[C@H](CC(N)=O)NC(=O)OC(C)(C)C)c3)cc(=O)c2c(OC)c1OC , state whether its growth is at least 20%.
Response: true

Query: Dear colleague, could you confirm whether N/N=C(\N)c1c(N)nc(=S)[nH]c1-c1ccc(Cl)cc1Cl has growth at or above 20%?
Response: true

Query: Kindly determine if growth recorded for NS(=O)(=O)c1ccc(-n2cc(-c3cccc(NC(=O)c4cc(Cl)cc(Cl)c4)c3)nn2)cc1 is above or exactly 20%.
Response: true

Query: Is reported growth greater than or equal to 20% here: C#CCOc1ccc(/C=N/Nc2nc(-c3ccc(Cl)cc3)cs2)cc1OC
Response: true

Query: Evaluate Cc1ccc([C@H]2C(C(=O)c3ccc(Cl)cc3)C3(N[C@@H]2c2ccccc2)C(=O)Nc2ccc(Cl)cc23)cc1 (some centres not stated) : growth at minimum 20%?
Response: true

Query: Can Cc1cc(C)cc(C(=O)Nc2cccc(-c3cn(-c4ccc(S(N)(=O)=O)cc4)nn3)c2)c1 be said to have growth at or above 20%?
Response: false

Query: Given CCN(CC)C(=O)N/C(N)=N/c1nc2ccccc2s1 , state whether its growth is at least 20%.
Response: true

Query: Can CCOC(=O)COc1c(OC)c(OC)cc2oc(-c3cccc(C(=O)Nc4ccc(Cl)cc4)c3)cc(=O)c12 be said to have growth at or above 20%?
Response: true

Query: Tell me whether growth is at least 20% here: O=C(COc1ccc(NC(=O)Nc2ccc(Cl)c(Cl)c2)cc1)N=Nc1c(O)[nH]c2ccc(Cl)cc12
Response: false

Query: Record COc1ccc(-c2nc3cc(C)ccc3n2CC(=O)N=Nc2c(O)[nH]c3ccccc23)cc1 ; criterion: growth no lower than 20%. Met?
Response: false
